test system: Plasmodium falciparum Sir2 (PF13_0152, Sir2A); assay: pfSir2 binders on small-molecule microarrays, primary screen, biochemical, small-molecule microarray, 635 nm fluorescence (AID 1098); conditions: small-molecule microarray binding, fluorescence 635 nm; higher = more signal;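 further: score merges spot fluorescence intensity with its signal-to-noise ratio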
Answer Not met if composite z-score is under 0.2, and Met if it is 0.2 or more.

Kindly determine if composite z-score recorded for CC(C)(C)N1C(=O)[C@H]2[C@H]3[C@H](O)[C@H](O)CC(=NOCc4ccccc4)[C@H]3CC[C@H]2C1=O is above or exactly 0.2.
Not met

Kindly determine if composite z-score recorded for CC(C)CON=C1[C@H]2CCn3c(=O)n(Cc4cc5c(cc4Cl)OCO5)c(=O)n3[C@H]2[C@H](O)[C@@H]2O[C@H]12 is above or exactly 0.2.
Met

Kindly determine if composite z-score recorded for COc1ccc(O[C@@H]2[C@H](O)CO[C@H]2C=Cc2ccccc2)cc1 is above or exactly 0.2.
Not met

Kindly determine if composite z-score recorded for CO[C@@H]1COC(=O)[C@H](CCSC)NC(=O)CC=C[C@@H](C)COC(=O)[C@H](C)NC(=O)CC=C[C@H]1C is above or exactly 0.2.
Met

Kindly determine if composite z-score recorded for COc1cc(O)c(C(=O)C=Cc2ccc3c(c2)OCO3)c(OC)c1 is above or exactly 0.2.
Not met

Kindly determine if composite z-score recorded for CCOC(=O)C1=NO[C@]2(C=C(Br)C3(OCCCO3)[C@H]3O[C@H]32)C1 is above or exactly 0.2.
Not met

Kindly determine if composite z-score recorded for COC(=O)CC=C[C@@H](C)[C@@H](C=NO[C@@H](C)c1cn([C@H](CO)Cc2ccccc2)nn1)NS(=O)(=O)c1ccc(C)cc1 is above or exactly 0.2.
Met

Kindly determine if composite z-score recorded for CC(C)(C)N1C(=O)[C@H]2[C@H]3[C@H](O)C=CC(=O)[C@@H]3CC[C@H]2C1=O is above or exactly 0.2.
Met

Kindly determine if composite z-score recorded for COC(=O)CC=C[C@@H](C)[C@@H](C=NOCC[C@@H]1C=C[C@H](OC(C)=O)[C@@H](COC(C)=O)O1)OC is above or exactly 0.2.
Met

Kindly determine if composite z-score recorded for CC(C)CON=C1C[C@@H](O)[C@@H](O)[C@@H]2[C@@H]3C(=O)N(c4cccc(Oc5ccccc5)c4)C(=O)[C@@H]3CC[C@@H]12 is above or exactly 0.2.
Met

Kindly determine if composite z-score recorded for C[n+]1ccc(-c2ccc(CO)cc2)cc1 is above or exactly 0.2.
Not met
